# Test system: Staphylococcus epidermidis
# PROCEDURE_TEXT: In vitro antimicrobial activity against Staphylococcus epidermidis EPI1
# Assay type: functional
ASSAY_METRIC: MIC (µg/mL)
Give bare numbers, in µg/mL.

For orientation, consider the following solved cases.
chem_smiles=CC[C@H]1OC(=O)C[C@@H](O)[C@H](C)[C@@H](O[C@@H]2O[C@H](C)[C@@H](O)[C@H](N(C)C)[C@H]2O)[C@@H](CCOc2ccc([N+](=O)[O-])cc2)C[C@@H](C)C(=O)/C=C/C(C)=C/[C@@H]1CO[C@@H]1O[C@H](C)[C@@H](O)[C@@H](OC)[C@H]1OC assay_metric=MIC measured_value=0.5
chem_smiles=CC[C@H]1OC(=O)C[C@@H](O)[C@H](C)[C@@H](O[C@@H]2O[C@H](C)[C@@H](O)[C@H](N(C)C)[C@H]2O)[C@@H](CCOc2ccc(OC(C)=O)cc2)C[C@@H](C)C(=O)/C=C/C(C)=C/[C@@H]1CO assay_metric=MIC measured_value=0.5
chem_smiles=CC[C@H]1OC(=O)C[C@@H](O)[C@H](C)[C@@H](O[C@@H]2O[C@H](C)[C@@H](O[C@H]3C[C@@](C)(O)[C@@H](O)[C@H](C)O3)[C@H](N(C)C)[C@H]2O)[C@@H](CCN2C(=O)c3ccccc3C2=O)C[C@@H](C)C(=O)/C=C/C(C)=C/[C@@H]1CO assay_metric=MIC measured_value=32
chem_smiles=CC[C@H]1OC(=O)C[C@@H](O)[C@H](C)[C@@H](O[C@@H]2O[C@H](C)[C@@H](O)[C@H](N(C)C)[C@H]2O)[C@@H](CCOc2cccc(N(C)C)c2)C[C@@H](C)C(=O)/C=C/C(C)=C/[C@@H]1CO[C@@H]1O[C@H](C)[C@@H](O)[C@@H](OC)[C@H]1OC assay_metric=MIC measured_value=0.5
chem_smiles=CC[C@H]1C[C@@H](C)C(=O)/C=C/C(C)=C/[C@H](CO[C@@H]2O[C@H](C)[C@@H](O)[C@@H](O)[C@H]2OC)[C@@H](CC)OC(=O)C[C@@H](O)[C@H](C)[C@H]1O[C@@H]1O[C@H](C)[C@@H](O)[C@H](N(C)C)[C@H]1O assay_metric=MIC measured_value=1.2
chem_smiles=CC[C@H]1OC(=O)C[C@@H](O)[C@H](C)[C@@H](O[C@@H]2O[C@H](C)[C@@H](O)[C@H](N(C)C)[C@H]2O)[C@@H](CCOc2ccccc2)C[C@@H](C)C(=O)/C=C/C(C)=C/[C@@H]1CO[C@@H]1O[C@H](C)[C@@H](O)[C@@H](O)[C@H]1OC assay_metric=MIC measured_value=0.25
chem_smiles=CC[C@H]1OC(=O)C[C@@H](O)[C@H](C)[C@@H](O[C@@H]2O[C@H](C)[C@@H](O)[C@H](N(C)C)[C@H]2O)[C@@H](CCOc2ccc(-c3ccccc3)cc2)C[C@@H](C)C(=O)/C=C/C(C)=C/[C@@H]1CO[C@@H]1O[C@H](C)[C@@H](O)[C@@H](OC)[C@H]1OC assay_metric=MIC measured_value=0.5
chem_smiles=CC[C@H]1OC(=O)C[C@@H](O)[C@H](C)[C@@H](O[C@@H]2O[C@H](C)[C@@H](O)[C@H](N(C)C)[C@H]2O)[C@@H](CCO)C[C@@H](C)C(=O)/C=C/C(C)=C/[C@@H]1CO assay_metric=MIC measured_value=32
chem_smiles=CC[C@H]1C[C@@H](C)C(=O)/C=C/C(C)=C/[C@H](C)[C@@H](CC)OC(=O)C[C@@H](O)[C@H](C)[C@H]1O[C@@H]1O[C@H](C)[C@@H](O)[C@H](N(C)C)[C@H]1O assay_metric=MIC measured_value=16
chem_smiles=CC[C@H]1OC(=O)C[C@@H](O)[C@H](C)[C@@H](O[C@@H]2O[C@H](C)[C@@H](O[C@H]3C[C@@](C)(O)[C@@H](O)[C@H](C)O3)[C@H](N(C)C)[C@H]2O)[C@@H](CCN2C(=O)c3ccccc3C2=O)C[C@@H](C)C(=O)/C=C/C(C)=C/[C@@H]1C assay_metric=MIC measured_value=64

Now examine the next entry.
Let me know recorded MIC for CC[C@H]1OC(=O)C[C@@H](O)[C@H](C)[C@@H](O[C@@H]2O[C@H](C)[C@@H](O[C@H]3C[C@@](C)(O)[C@@H](O)[C@H](C)O3)[C@H](N(C)C)[C@H]2O)[C@@H](CCNCCc2ccccc2)C[C@@H](C)C(=O)/C=C/C(C)=C/[C@@H]1CO , thanks. 16
